- assay-target: human dopamine D3 receptor (hD3R) (Homo sapiens, UniProt P35462)
- Sequence (P35462 whole entry): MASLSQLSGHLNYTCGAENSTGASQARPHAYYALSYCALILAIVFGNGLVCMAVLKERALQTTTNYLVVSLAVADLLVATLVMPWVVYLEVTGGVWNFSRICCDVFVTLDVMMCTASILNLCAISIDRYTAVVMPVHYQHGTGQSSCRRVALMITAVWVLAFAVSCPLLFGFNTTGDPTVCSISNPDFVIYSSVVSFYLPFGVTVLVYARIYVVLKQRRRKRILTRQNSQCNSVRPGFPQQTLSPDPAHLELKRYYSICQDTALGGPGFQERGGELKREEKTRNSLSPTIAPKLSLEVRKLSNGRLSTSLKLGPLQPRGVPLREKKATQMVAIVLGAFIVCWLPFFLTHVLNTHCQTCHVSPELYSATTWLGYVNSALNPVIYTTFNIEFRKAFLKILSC
- experiment-description: Human D3 receptor binding assay ([^3H]-7-OH-DPAT)
- measurement-conditions: CHO cells expressing hD3R, geometric mean of 2-5 determinations unless marked b (single determination), read-out: hD3 in CHO cells Ki
result-type: Ki
Your reply should be a number followed by the unit it is expressed in.

Exercise: Dear colleague, please send me the reported Ki for COc1nc2c(cc1NS(=O)(=O)c1cnc(OC(C)(C)C)nc1)CCN(C)CC2 [Example 117] when you can.
Solution: 9.93 nM

----------
- assay-target: human dopamine D2 receptor (hD2R) (Homo sapiens, UniProt P14416)
- Sequence (P14416 whole entry): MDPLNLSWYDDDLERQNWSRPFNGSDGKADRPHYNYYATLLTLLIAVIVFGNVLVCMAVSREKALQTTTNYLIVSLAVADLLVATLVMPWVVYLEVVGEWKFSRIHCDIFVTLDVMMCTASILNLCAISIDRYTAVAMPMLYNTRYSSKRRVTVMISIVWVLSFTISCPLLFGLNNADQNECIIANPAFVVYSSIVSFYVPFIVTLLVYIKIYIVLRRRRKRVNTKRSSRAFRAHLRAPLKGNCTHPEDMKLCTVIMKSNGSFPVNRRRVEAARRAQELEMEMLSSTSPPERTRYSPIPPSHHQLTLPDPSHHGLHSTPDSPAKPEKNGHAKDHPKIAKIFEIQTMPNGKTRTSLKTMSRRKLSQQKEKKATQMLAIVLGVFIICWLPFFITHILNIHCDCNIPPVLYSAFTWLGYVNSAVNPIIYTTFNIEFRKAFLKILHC
- experiment-description: Human D2 receptor binding assay ([^3H]-Spiperone)
- measurement-conditions: CHO cells expressing hD2R, geometric mean of 2-5 determinations unless marked b (single determination)
Quick rule for you: Ki under 30 nM gets true (1), anything else gets false (0).

Some solved entries appear below for comparison.
> print(dat)
                                   compound                              assay.target  label.value
1  COc1nc2c(cc1NS(=O)(=O)c1ccc([C@@H](C)OC)cc1)CCN(C)CC2  human dopamine D2 receptor (hD2R) (Homo sapiens, UniProt P14416)    false (0)
2  CCOc1ccc(S(=O)(=O)Nc2cc3c(nc2OC)CCN(CC)CC3)cc1  human dopamine D2 receptor (hD2R) (Homo sapiens, UniProt P14416)    false (0)
3  CCO[C@H]1C[C@@H](c2ccc(S(=O)(=O)Nc3cc4c(nc3OC)CCN(CC)CC4)cc2)C1  human dopamine D2 receptor (hD2R) (Homo sapiens, UniProt P14416)    false (0)
4  COc1nc2c(cc1NS(=O)(=O)c1ccc(C3CCCCC3)cc1)CCN(C)CC2  human dopamine D2 receptor (hD2R) (Homo sapiens, UniProt P14416)     true (1)
5  CCc1nc2c(cc1NS(=O)(=O)c1ccc([C@H]3CCCCO3)cc1)CCN(C)CC2  human dopamine D2 receptor (hD2R) (Homo sapiens, UniProt P14416)    false (0)
6  COc1nc2c(cc1NS(=O)(=O)c1ccc([C@H](C)OC)cc1)CCN(C)CC2  human dopamine D2 receptor (hD2R) (Homo sapiens, UniProt P14416)    false (0)
7  COc1nc2c(cc1NS(=O)(=O)c1ccc([C@H]3CCCCO3)c(F)c1)CCN(C)CC2  human dopamine D2 receptor (hD2R) (Homo sapiens, UniProt P14416)     true (1)
8  COc1nc2c(cc1NS(=O)(=O)c1ccc([C@H]3CCCCO3)c(C)c1)CCN(C)CC2  human dopamine D2 receptor (hD2R) (Homo sapiens, UniProt P14416)     true (1)

Exercise: Is 30 nM strictly greater than the compound's reported Ki? compound: COc1nc2c(cc1NS(=O)(=O)c1ccc(C3CC(F)(F)CCO3)cc1)CCN(C)CC2 (single isomer, unassigned) [Example 41]
Solution: false (0)

Exercise: Is 30 nM strictly greater than the compound's reported Ki? compound: COc1nc2c(cc1NS(=O)(=O)c1ccc3c(c1)CC(C)(C)O3)CCN(C)CC2
Solution: true (1)

Exercise: Is 30 nM strictly greater than the compound's reported Ki? compound: COc1nc2c(cc1NS(=O)(=O)c1ccc(C3(F)CCCCC3)nc1)CCN(C)CC2
Solution: false (0)

----------
Some compounds, each annotated with its measured log10 Ki.
- assay-target: UniProt:P35462
- experiment-description: Human D3 receptor binding assay ([^3H]-7-OH-DPAT)
- measurement-conditions: CHO cells expressing hD3R, geometric mean of 2-5 determinations unless marked b (single determination), read-out: hD3 in CHO cells Ki
- Experimental: Human D2 Receptor and Human D3 Receptor Binding Assays: These determined ligand and tissue concentrations were utilized in time course studies to determine linearity and equilibrium conditions for binding. […] The hD2R assay buffer contains 50 mM Tris (pH 7.4 @ 37° C.), 100 mM NaCl and 1 mM MgCl2. […] Non-specific binding was determined by radioligand binding in the presence of a saturating concentration of Haldol (10 μM). […] Ki values were then calculated according to the Cheng-Prusoff equation: […]
log10 Ki, nM

The examples below pair each entry with its known result.
> print(dat)
                                   compound    assay.target  recorded.measurement
1  CCN1CCc2cc(NS(=O)(=O)c3cnc(OC4CCCC4)c(C)c3)c(OC)nc2CC1  UniProt:P35462                  0.16
2  CCN1CCc2cc(NS(=O)(=O)c3ccc(C4(F)CCC(OC)CC4)cc3)c(OC)nc2CC1 (single isomer, unassigned)  UniProt:P35462                  0.43
3  COc1nc2c(cc1NS(=O)(=O)c1ccc(C3CCOC(C)(C)C3)cc1)CCN(C)CC2 (single isomer, unassigned) [Example 87]  UniProt:P35462                  0.56
4  COc1nc2c(cc1NS(=O)(=O)c1ccc(OC3CCOC3)cc1)CCN(C)CC2 (stereo not drawn)  UniProt:P35462                  0.64
5  COc1nc2c(cc1NS(=O)(=O)c1ccc(C3CCOC3)cc1)CCN(C)CC2 (stereo not drawn)  UniProt:P35462                  0.52
6  CCCN1CCc2cc(NS(=O)(=O)c3ccc(OCC)cc3)c(OC)nc2CC1  UniProt:P35462                  0.51

Exercise: Dear colleague, please send me the reported log10 Ki for CCN1CCc2cc(NS(=O)(=O)c3ccc(C4CCOCC4)cc3)c(OC)nc2CC1 when you can.
Solution: 0.50

Exercise: Dear colleague, please send me the reported log10 Ki for COc1nc2c(cc1NS(=O)(=O)c1ccc(C3CCCOC3)cc1)CCN(C)CC2 (racemic) [Example 77] when you can.
Solution: 0.66

Exercise: Dear colleague, please send me the reported log10 Ki for CCN1CCc2cc(NS(=O)(=O)c3ccc(C)c(C)c3)c(OC)nc2CC1 when you can.
Solution: 0.37

Exercise: Dear colleague, please send me the reported log10 Ki for COc1nc2c(cc1NS(=O)(=O)c1ccc3c(c1)CC(C)(C)O3)CCN(C)CC2 when you can.
Solution: -0.19

Exercise: Dear colleague, please send me the reported log10 Ki for COc1nc2c(cc1NS(=O)(=O)c1cnc(C3CCCC3)nc1)CCN(C)CC2 when you can.
Solution: 1.11

Exercise: Dear colleague, please send me the reported log10 Ki for COc1nc2c(cc1NS(=O)(=O)c1ccc(C3CCOC(C)C3)cc1)CCN(C)CC2 (single isomer, unassigned) [Example 88] when you can.
Solution: 0.84

Exercise: Dear colleague, please send me the reported log10 Ki for COc1nc2c(cc1NS(=O)(=O)c1ccc(C3CCCOC3)cc1)CCN(C)CC2 (single isomer, unassigned) [Example 84] when you can.
Solution: 0.66

Exercise: Dear colleague, please send me the reported log10 Ki for CCO[C@H]1C[C@H](c2ccc(S(=O)(=O)Nc3cc4c(nc3OC)CCN(C)CC4)cn2)C1 when you can.
Solution: 1.17

Exercise: Dear colleague, please send me the reported log10 Ki for CCOc1ccc(S(=O)(=O)Nc2cc3c(nc2OC(C)C)CCN(CC)CC3)cc1 when you can.
Solution: 0.58

----------
Some compounds, each annotated with its measured Ki.
- assay-target: human dopamine D2 receptor (hD2R) (Homo sapiens)
- experiment-description: Human D2 receptor binding assay ([^3H]-Spiperone)
- measurement-conditions: CHO cells expressing hD2R, geometric mean of 2-5 determinations unless marked b (single determination)
- Protocol: Human D2 Receptor and Human D3 Receptor Binding Assays: These determined ligand and tissue concentrations were utilized in time course studies to determine linearity and equilibrium conditions for binding. […] The hD2R assay buffer contains 50 mM Tris (pH 7.4 @ 37° C.), 100 mM NaCl and 1 mM MgCl2. […] Non-specific binding was determined by radioligand binding in the presence of a saturating concentration of Haldol (10 μM). […] Ki values were then calculated according to the Cheng-Prusoff equation: […]
Give the quantity in nM, number only.

> print(dat)
                                   compound  recorded.measurement
1  CCO[C@H]1C[C@@H](c2ccc(S(=O)(=O)Nc3cc4c(nc3OC)CCN(C)CC4)cc2)C1                  25.5
2  CCN1CCc2cc(NS(=O)(=O)c3ccc([C@H]4CCCCO4)c(C)c3)c(OC)nc2CC1                  7.24
3  CCO[C@H]1C[C@@](F)(c2ccc(S(=O)(=O)Nc3cc4c(nc3OC)CCN(CC)CC4)cc2)C1                   933
4  COc1nc2c(cc1NS(=O)(=O)c1ccc(C3CCCOC3)cc1)CCN(C)CC2 (single isomer, unassigned) [Example 83]                   436

Attention now shifts to the item below.
Exercise: Dear colleague, please send me the reported Ki for CCN1CCc2cc(NS(=O)(=O)c3ccc(C4CCCCO4)cc3)c(OC)nc2CC1 (racemic) [Example 70] when you can.
Solution: 294
